experimental system: UniProt P0DP23
assay remarks: CaM-stimulated AC1 activity in membrane preparations
Type: biochemical
measurement parameters: read-out: AC1 % inhibition
quantity kind: inhibition at 100 µM (%)
Give the value in % but do not write % after it.

A selection of reference data follows.
Clc1ccc(C(c2ccc(Cl)cc2)n2cc[n+](CC(OCc3ccc(Cl)cc3Cl)c3ccc(Cl)cc3Cl)c2)cc1 (centres unmarked) [CDZ, calmidazolium chloride]    97
CCCCC(CC)CNC(=N)NC(=N)NCCCCCCNC(=N)NC(=N)NCC(CC)CCCC (centres unmarked)    162
CCCCCCCCOc1ccccc1C(=O)Nc1ccc(C(=O)OCC[N+](C)(CC)CC)cc1 [otilonium, otilonium bromide]    103

(Q) Query (molecule): CCCCCCCCCCCC[N+](C)(C)CCOc1ccccc1 [domiphen, Domiphen bromide] ; field requested: inhibition at 100 µM
(A) 96

(Q) Dear colleague, I am looking for the recorded inhibition at 100 µM of the following molecule: CCCCCCCCCCCCCCCC[N+](C)(C)CCN(Cc1ccc(OC)cc1)c1ncccn1 [thonzonium, Thonzonium bromide]
(A) 77
